Measured Agonist Activity (%), listed per entry.
measured_target: Human orexin receptor type 2 (Homo sapiens, UniProt O43614)
assay_procedure: Test Example 1: agonist activity for orexin receptor type 2 (aequorin luminescence, intracellular calcium mobilization)
condition_description: compound 10 μm; CHO cells transiently expressing human orexin receptor type 2 and apoaequorin; relative percentage of luminescence for the luminescence (100%) of Orexin A (100 μM)
measurement_type: Agonist Activity (%)

[[record]]
compound = "Cc1cnc(C2CCN(C(=O)Nc3c(Cl)cccc3N3CCN(C(C)C)CC3)CC2)nc1 [Example 98]"
measurement_type = "Agonist Activity (%)"
numeric_value = 165

[[record]]
compound = "COc1cccc(N2CCN(C(C)C)CC2)c1NC(=O)N1CCC(C)(c2noc(C(F)(F)F)n2)CC1 [Example 25]"
measurement_type = "Agonist Activity (%)"
numeric_value = 136

[[record]]
compound = "CC(C)N1CCN(c2cccc(Cl)c2NC(=O)N2CCC(C)(c3noc(C4(C)CC4)n3)CC2)CC1 [Example 80]"
measurement_type = "Agonist Activity (%)"
numeric_value = 157

[[record]]
compound = "CC(C)c1ccc(-c2cccc(F)c2NC(=O)N2CCC(C)(c3noc(C4CC4)n3)CC2)cc1 [Example 65]"
measurement_type = "Agonist Activity (%)"
numeric_value = 93

[[record]]
compound = "COc1cccc(N2CCN(C(C)C)CC2)c1NC(=O)N1CCC(c2ccc(C)cc2)CC1 [Example 8]"
measurement_type = "Agonist Activity (%)"
numeric_value = 145


---

Measured Agonist Activity (%), listed per entry.
measured_target: UniProt:O43614
Sequence (O43614 1-444): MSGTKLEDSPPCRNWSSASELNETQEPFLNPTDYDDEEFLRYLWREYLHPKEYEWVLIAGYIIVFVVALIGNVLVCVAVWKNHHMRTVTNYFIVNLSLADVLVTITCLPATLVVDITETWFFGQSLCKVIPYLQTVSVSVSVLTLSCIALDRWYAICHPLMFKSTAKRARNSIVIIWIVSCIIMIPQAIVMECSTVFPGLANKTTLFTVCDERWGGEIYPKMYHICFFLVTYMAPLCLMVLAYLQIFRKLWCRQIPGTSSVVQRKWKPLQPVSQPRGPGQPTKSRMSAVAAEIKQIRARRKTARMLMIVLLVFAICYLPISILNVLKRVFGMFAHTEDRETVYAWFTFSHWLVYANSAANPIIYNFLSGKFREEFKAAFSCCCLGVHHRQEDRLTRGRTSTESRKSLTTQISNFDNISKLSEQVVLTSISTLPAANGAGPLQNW
assay_procedure: Test Example 1: agonist activity for orexin receptor type 2 (aequorin luminescence, intracellular calcium mobilization)
condition_description: compound 10 μm; CHO cells transiently expressing human orexin receptor type 2 and apoaequorin; relative percentage of luminescence for the luminescence (100%) of Orexin A (100 μM)
measurement_type: Agonist Activity (%)

[[record]]
molecule = "Cc1ccc(C2(C)CCN(C(=O)Nc3c(Cl)cccc3N3CCN(C(C)C)CC3)CC2)cc1"
measurement_type = "Agonist Activity (%)"
result = "158%"

[[record]]
molecule = "CC(C)N1CC=C(c2cccc(F)c2NC(=O)N2CCC(C)(c3cc(C4CC4)on3)CC2)CC1"
measurement_type = "Agonist Activity (%)"
result = "154%"

[[record]]
molecule = "Cc1ccc(C2CCN(C(=O)Nc3c(F)cccc3N3C4CCC3CN(C(C)C)C4)CC2)cc1"
measurement_type = "Agonist Activity (%)"
result = "90%"

[[record]]
molecule = "CC(C)N1CCN(c2cccc(F)c2NC(=S)N2CCC(C)(c3noc(C4CC4)n3)CC2)CC1"
measurement_type = "Agonist Activity (%)"
result = "171%"

[[record]]
molecule = "CC(C)N1CCN(c2cccc(F)c2NC(=O)N2CCC(C)(c3cc(C4CC4)on3)CC2)CC1"
measurement_type = "Agonist Activity (%)"
result = "140%"

[[record]]
molecule = "Cc1nnc(C2(C)CCN(C(=O)Nc3ccccc3N3CCN(C(C)C)CC3)CC2)o1"
measurement_type = "Agonist Activity (%)"
result = "96%"

[[record]]
molecule = "Cc1ncc(C2(C)CCN(C(=O)Nc3c(Cl)cccc3N3CCN(C(C)C)CC3)CC2)o1"
measurement_type = "Agonist Activity (%)"
result = "196%"

[[record]]
molecule = "Cc1ccc(-c2cccc(F)c2NC(=O)N2CCC(C)(c3cc(C4CC4)on3)CC2)cn1"
measurement_type = "Agonist Activity (%)"
result = "68%"

[[record]]
molecule = "CC1(C#N)CCN(C(=O)Nc2c(Cl)cccc2C2=CCN(C3CCC3)CC2)CC1"
measurement_type = "Agonist Activity (%)"
result = "150%"

[[record]]
molecule = "CC(C)N1CCN(c2cccc(Cl)c2NC(=O)N2CCC(C)(c3cc(C4CC4)on3)CC2)CC1"
measurement_type = "Agonist Activity (%)"
result = "156%"

[[record]]
molecule = "Cc1cccc(C2CCN(C(=O)Nc3c(F)cccc3N3CCN(C(C)C)CC3)CC2)c1"
measurement_type = "Agonist Activity (%)"
result = "77%"

[[record]]
molecule = "CCN1CCN(c2ccccc2NC(=O)N2CCC(C)(c3ccccc3)CC2)CC1.Cl"
measurement_type = "Agonist Activity (%)"
result = "125%"

[[record]]
molecule = "Cc1cc(C2(C)CCN(C(=O)Nc3c(Cl)cccc3N3CCN(C(C)C)CC3)CC2)no1"
measurement_type = "Agonist Activity (%)"
result = "110%"

[[record]]
molecule = "CCC1(c2noc(C3CC3)n2)CCN(C(=O)Nc2c(F)cccc2N2CCN(C(C)C)CC2)CC1"
measurement_type = "Agonist Activity (%)"
result = "142%"

[[record]]
molecule = "Cc1ccc(C2CC3CCC(C2)N3C(=O)Nc2c(F)cccc2N2CCN(C(C)C)CC2)cc1 (centres unmarked)"
measurement_type = "Agonist Activity (%)"
result = "47%"

[[record]]
molecule = "CC(C)N1C[C@H]2C[C@@H]1CN2c1cccc(F)c1NC(=O)N1CCC(C)(c2noc(C3CC3)n2)CC1"
measurement_type = "Agonist Activity (%)"
result = "136%"

[[record]]
molecule = "CC(C)N1CCC(c2cccc(F)c2NC(=O)N2CCC(C)(c3cc(C4CC4)on3)CC2)CC1"
measurement_type = "Agonist Activity (%)"
result = "140%"

[[record]]
molecule = "CC(C)N1CCN(c2cccc(Cl)c2NC(=O)N2CCc3ccccc3CC2)CC1"
measurement_type = "Agonist Activity (%)"
result = "69%"

[[record]]
molecule = "Cc1ccc(C2CCN(C(=O)Nc3ccccc3N3CCN(C(C)C)CC3)CC2)cc1"
measurement_type = "Agonist Activity (%)"
result = "130%"

[[record]]
molecule = "CC(C)N1CCN(c2cccc(Cl)c2NC(=O)N2CCC(C)(c3noc(C4CC4(F)F)n3)CC2)CC1 (centres unmarked)"
measurement_type = "Agonist Activity (%)"
result = "155%"

[[record]]
molecule = "Cc1ccc(C23CCN(C(=O)Nc4ccccc4N4CCN(C(C)C)CC4)CC2C3)cc1 (centres unmarked)"
measurement_type = "Agonist Activity (%)"
result = "126%"

[[record]]
molecule = "Cc1ccccc1C1CCN(C(=O)Nc2c(F)cccc2N2CCN(C(C)C)CC2)CC1"
measurement_type = "Agonist Activity (%)"
result = "47%"

[[record]]
molecule = "CC(CF)N1CCC(c2cccc(Cl)c2NC(=O)N2CCC(C)(c3noc(C4CC4)n3)CC2)CC1 (centres unmarked)"
measurement_type = "Agonist Activity (%)"
result = "109%"

[[record]]
molecule = "CC(C)c1ccc(-c2cccc(F)c2NC(=O)N2CCC(C)(c3noc(C4CC4)n3)CC2)cn1"
measurement_type = "Agonist Activity (%)"
result = "102%"

[[record]]
molecule = "CC1(c2noc(C3CC3)n2)CCN(C(=O)Nc2c(Cl)cccc2N2CCN(C(C)(C)C)CC2)CC1"
measurement_type = "Agonist Activity (%)"
result = "160%"

[[record]]
molecule = "Cc1nc(C2(C)CCN(C(=O)Nc3c(Cl)cccc3N3CCN(C(C)C)CC3)CC2)no1"
measurement_type = "Agonist Activity (%)"
result = "145%"

[[record]]
molecule = "CC(C)N1CC=C(c2cccc(Cl)c2NC(=O)N2CCC(C)(C#N)CC2)CC1"
measurement_type = "Agonist Activity (%)"
result = "133%"

[[record]]
molecule = "Cc1ccc(C2CCN(C(=O)Nc3c(F)cccc3C3=CCN(C(C)C(F)F)CC3)CC2)cc1 (centres unmarked)"
measurement_type = "Agonist Activity (%)"
result = "103%"

[[record]]
molecule = "COc1cccc(N2CCN(C(C)C)CC2)c1NC(=O)N1CCC(c2ccc(OC(F)(F)F)cc2)CC1"
measurement_type = "Agonist Activity (%)"
result = "82%"


---

measured_target: Human orexin receptor type 2 (Homo sapiens, UniProt O43614)
assay_procedure: Test Example 1: agonist activity for orexin receptor type 2 (aequorin luminescence, intracellular calcium mobilization)
condition_description: compound 10 μm; CHO cells transiently expressing human orexin receptor type 2 and apoaequorin; relative percentage of luminescence for the luminescence (100%) of Orexin A (100 μM)
measurement_type: Agonist Activity (%)

[[record]]
compound = "Cc1nc(C2(C)CCN(C(=O)Nc3c(F)cccc3N3CCN(C(C)C)CC3)CC2)no1 [Example 22]"
numeric_value = 97

[[record]]
compound = "CC(C)N1CCN(c2cccc(Cl)c2NC(=O)N2CCC(C)(c3nc4ccccc4o3)CC2)CC1 [Example 66]"
numeric_value = 129

[[record]]
compound = "Cc1ccc(C2CCN(C(=O)Nc3c(F)cccc3C3=CCN(C)C3)CC2)cc1 [Example 140]"
numeric_value = 75

[[record]]
compound = "Cc1ccc(C2CCN(C(=O)Nc3ccc(F)cc3N3CCN(C(C)C)CC3)CC2)cc1 [Example 10]"
numeric_value = 34

